Attribute: melting point

Worked examples follow.
O=C(NC1(CO)CCOCC1)c1c[nH]c2ncc(C3CC3)nc12    294 to 296 °C
O=C(Nc1cccc(C(F)(F)F)c1)c1c[nH]c2ncc(C3CC3)nc12    271.1 to 272.9 °C
O=C(NC1CCCCC1)c1c[nH]c2ncc(Oc3ccc(F)cc3F)nc12    245 to 247 °C
O=C(NC1CCCCC1)c1c[nH]c2ncc(C3CC3)nc12    > 300 °C
CC1(C)COCC1NC(=O)c1c[nH]c2ncc(C3CC3)nc12 (stereo not drawn)    > 300 °C

In plain terms, CC1(C)OCCC1NC(=O)c1c[nH]c2ncc(C3CC3)nc12 (stereo not drawn) has a documented melting point of > 300 °C

Entry CCS(=O)(=O)N1CCCC(NC(=O)c2c[nH]c3ncc(C4CC4)nc23)C1 (stereo not drawn) — recorded melting point = 266 to 269 °C

# melting point (molecule: CCCS(=O)(=O)N1CCCC(NC(=O)c2c[nH]c3ncc(C4CC4)nc23)C1 (stereo not drawn) ) is 228 to 230 °C
